System: SW-620 colon
ASSAY_OVERVIEW: NCI-60 one-dose screen, 48 h (100 = growth as untreated, 0 = no growth, -100 = all killed)
EXPERIMENTAL_CONDITIONS: 10 µM
About 83,000 compounds went through this panel and 20% of them were active in at least one assay; those are over-represented in the sample as a whole.
REPORTED_METRIC: growth (%)

COMPOUND	UNIT_SPEC	NUMERIC_READOUT
CCCCCCCC[N+]12CN3CN(CN(C3)C1)C2	%	89.7
CC[C@@H](C)[C@@H]1NC(=O)C(NC(=O)C(CC(C)C)N(C)C(=O)C2CCCN2C(=O)C(C)O)C(C)OC(=O)C(Cc2ccc(OC)cc2)N(C)C(=O)C2CCCN2C(=O)C(CC(C)C)NC(=O)C(C)C(=O)C(C(C)C)OC(=O)C[C@H]1O (stereo not given in full)	%	-45.5
CN(C)CC1(N)C(=O)NC(=O)NC1=O	%	106
[O-][n+]1ccccc1S	%	42
O=[N+]([O-])/C=C/c1ccc(Cl)cc1[N+](=O)[O-]	%	-90.2
CC12OOC(c3ccccc31)c1c2ccc2ccccc12 (stereo not given)	%	-52.1
O=[N+]([O-])/C=C\c1ccc2c(c1)OCO2	%	43.2
COc1cc2c(c(OC)c1OC)-c1ccc(O)c(=O)cc1[C@@H](NC(C)=O)CC2	%	50.2
O=[N+]([O-])c1ccc(N2CCOCC2)c2c1no[n+]2[O-]	%	3.22
[Cl][Sn]([c]1ccccc1)([c]1ccccc1)[c]1ccccc1	%	-56.2
